Source of measurements: ChEMBL document CHEMBL6083292

# Method summary: Metabolic stability in CD-1 mouse microsomes assessed as intrinsic clearance preincubated for 5 mins followed by NADPH addition and measured upto 60 mins by LC-MS/MS analysis
# Type: ADME, Microsome
# Assay context: time < 65 min, read-out: CLH
Readout name: microsomal CLint (µL/min/mg)

Molecule smiles | Measured result
CN(Cc1ccc(C(C)(C)C)cc1)S(=O)(=O)N1CCCc2cc(Nc3ccc4c(c3)CCCC4=O)ccc21 | 76

###

# Method summary: Drug concentration in BALB/c mouse plasma at 4 % administered topically as ointment measured at 10 mins
# Type: ADME, cell-free
# Assay context: topical or ocular

Molecule smiles | Value unit | concentration at 10 min
CN(Cc1ccc(C(C)(C)C)cc1)S(=O)(=O)N1CCCc2cc(Nc3ccc4c(c3)CCCC4=O)ccc21 | ng/mL | 75

###

# Measured on: Nuclear receptor ROR-gamma (Homo sapiens)
# Sequence (P51449 whole entry): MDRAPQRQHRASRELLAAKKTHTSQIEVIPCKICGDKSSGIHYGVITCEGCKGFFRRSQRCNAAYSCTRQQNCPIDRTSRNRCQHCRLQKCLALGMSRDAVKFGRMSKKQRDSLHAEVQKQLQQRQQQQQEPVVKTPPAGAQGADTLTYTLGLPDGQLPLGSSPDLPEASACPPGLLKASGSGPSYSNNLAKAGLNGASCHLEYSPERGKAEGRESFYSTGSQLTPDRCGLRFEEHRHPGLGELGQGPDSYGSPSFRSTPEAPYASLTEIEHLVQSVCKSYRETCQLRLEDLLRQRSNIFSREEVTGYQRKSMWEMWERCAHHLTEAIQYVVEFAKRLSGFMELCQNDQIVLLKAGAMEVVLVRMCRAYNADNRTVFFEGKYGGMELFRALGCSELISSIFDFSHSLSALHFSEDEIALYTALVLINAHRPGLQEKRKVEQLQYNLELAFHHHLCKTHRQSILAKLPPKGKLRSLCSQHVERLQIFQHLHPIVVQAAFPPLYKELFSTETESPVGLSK
pIC50: −log10 of the molar value.
# pIC50 listing for each entry below
Readout name: pIC50

Molecule | Measured on | Readout name | Measured result
CN(Cc1ccccc1)S(=O)(=O)N1CCCc2cc(N3CC4(CCOCC4)C3)ccc21 | Nuclear receptor ROR-gamma (Homo sapiens) | pIC50 | 4.72
CN(Cc1ccc(C(C)(C)C)cc1)S(=O)(=O)N1CCCc2cc(N3CCC(C(=O)O)CC3)ccc21 | Nuclear receptor ROR-gamma (Homo sapiens) | pIC50 | 6.54
CC(=O)N1CCN(c2ccc3c(c2)CCCN3S(=O)(=O)N(C)Cc2ccc(C(F)(F)F)o2)CC1 | Nuclear receptor ROR-gamma (Homo sapiens) | pIC50 | 4.57
CN(Cc1ccccc1)S(=O)(=O)N1CCCc2cc(N3CCN(C(=O)C4CCC4)CC3)ccc21 | Nuclear receptor ROR-gamma (Homo sapiens) | pIC50 | 4.89
CCc1ccc(S(=O)(=O)N2CCCc3cc(N4CCN(C(C)=O)CC4)ccc32)cc1 | Nuclear receptor ROR-gamma (Homo sapiens) | pIC50 | 5.04
CN(Cc1ccc(C(C)(C)C)cc1)S(=O)(=O)N1CCCc2cc(Nc3ccc4c(c3)CCCC4=O)ccc21 | Nuclear receptor ROR-gamma (Homo sapiens) | pIC50 | 7.03
CC(=O)N1CCN(c2ccc3c(c2)CCCN3S(=O)(=O)N(C)Cc2ccc(C(O)(C(F)(F)F)C(F)(F)F)cc2)CC1 | Nuclear receptor ROR-gamma (Homo sapiens) | pIC50 | 5.85
CN(Cc1ccccc1)S(=O)(=O)N1CCCc2cc(N3CCN(C(=O)C4CCOC4)CC3)ccc21 (stereo not drawn) | Nuclear receptor ROR-gamma (Homo sapiens) | pIC50 | 4.73

###

# Measured on: Voltage-gated inwardly rectifying potassium channel KCNH2 (Homo sapiens, UniProt Q12809)
# Sequence (Q12809 whole entry): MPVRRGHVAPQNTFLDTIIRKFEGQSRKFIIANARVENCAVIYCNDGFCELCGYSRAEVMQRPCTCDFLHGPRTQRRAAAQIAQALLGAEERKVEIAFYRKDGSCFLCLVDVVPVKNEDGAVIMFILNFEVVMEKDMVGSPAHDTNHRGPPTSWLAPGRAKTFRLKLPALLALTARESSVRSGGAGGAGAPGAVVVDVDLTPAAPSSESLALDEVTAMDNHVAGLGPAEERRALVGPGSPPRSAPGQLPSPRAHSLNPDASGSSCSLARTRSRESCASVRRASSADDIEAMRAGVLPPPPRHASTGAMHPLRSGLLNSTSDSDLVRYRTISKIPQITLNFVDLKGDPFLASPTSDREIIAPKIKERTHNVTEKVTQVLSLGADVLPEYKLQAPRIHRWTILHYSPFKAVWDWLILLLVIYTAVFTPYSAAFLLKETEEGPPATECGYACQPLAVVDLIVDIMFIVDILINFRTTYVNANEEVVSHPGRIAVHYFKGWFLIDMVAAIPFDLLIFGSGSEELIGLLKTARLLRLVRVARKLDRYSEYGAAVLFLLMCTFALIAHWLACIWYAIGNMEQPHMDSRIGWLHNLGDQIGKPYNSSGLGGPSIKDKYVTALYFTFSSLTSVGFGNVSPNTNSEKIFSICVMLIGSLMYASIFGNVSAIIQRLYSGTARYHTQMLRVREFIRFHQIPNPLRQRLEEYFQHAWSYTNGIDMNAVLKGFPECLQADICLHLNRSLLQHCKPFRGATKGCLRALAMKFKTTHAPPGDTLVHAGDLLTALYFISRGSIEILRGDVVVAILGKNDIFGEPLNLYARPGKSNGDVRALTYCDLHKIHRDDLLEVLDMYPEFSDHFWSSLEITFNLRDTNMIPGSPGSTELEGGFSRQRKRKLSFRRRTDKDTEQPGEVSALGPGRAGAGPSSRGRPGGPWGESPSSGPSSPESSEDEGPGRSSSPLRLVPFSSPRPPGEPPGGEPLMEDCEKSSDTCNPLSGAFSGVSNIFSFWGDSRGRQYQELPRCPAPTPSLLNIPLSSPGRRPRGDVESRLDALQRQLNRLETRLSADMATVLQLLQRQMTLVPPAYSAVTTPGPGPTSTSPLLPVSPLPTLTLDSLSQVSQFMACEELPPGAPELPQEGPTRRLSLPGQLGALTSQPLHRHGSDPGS
pIC50: −log10 of the molar value.
Readout name: pIC50

Molecule smiles | Readout name | Measured result
CN(Cc1ccc(C(C)(C)C)cc1)S(=O)(=O)N1CCCc2cc(Nc3ccc4c(c3)CCCC4=O)ccc21 | pIC50 | < 4.40

###

# Method summary: Metabolic stability in CD-1 mouse liver assessed as intrinsic clearance preincubated for 5 mins followed by NADPH addition and measured upto 60 mins by LC-MS/MS analysis
# Type: ADME, tissue-based
# Assay context: time < 65 min, read-out: CLH

Molecule smiles | CLint scaled
CN(Cc1ccc(C(C)(C)C)cc1)S(=O)(=O)N1CCCc2cc(Nc3ccc4c(c3)CCCC4=O)ccc21 | 301 mL/min/kg
